# test-target: Human Cav3.1 calcium channel (Homo sapiens, UniProt O43497)
# Construct: expressed in transfected cells; host or cells: HEK-293 natClytin/TASK1+Cav3.1 cell line
# Sequence (O43497 whole entry): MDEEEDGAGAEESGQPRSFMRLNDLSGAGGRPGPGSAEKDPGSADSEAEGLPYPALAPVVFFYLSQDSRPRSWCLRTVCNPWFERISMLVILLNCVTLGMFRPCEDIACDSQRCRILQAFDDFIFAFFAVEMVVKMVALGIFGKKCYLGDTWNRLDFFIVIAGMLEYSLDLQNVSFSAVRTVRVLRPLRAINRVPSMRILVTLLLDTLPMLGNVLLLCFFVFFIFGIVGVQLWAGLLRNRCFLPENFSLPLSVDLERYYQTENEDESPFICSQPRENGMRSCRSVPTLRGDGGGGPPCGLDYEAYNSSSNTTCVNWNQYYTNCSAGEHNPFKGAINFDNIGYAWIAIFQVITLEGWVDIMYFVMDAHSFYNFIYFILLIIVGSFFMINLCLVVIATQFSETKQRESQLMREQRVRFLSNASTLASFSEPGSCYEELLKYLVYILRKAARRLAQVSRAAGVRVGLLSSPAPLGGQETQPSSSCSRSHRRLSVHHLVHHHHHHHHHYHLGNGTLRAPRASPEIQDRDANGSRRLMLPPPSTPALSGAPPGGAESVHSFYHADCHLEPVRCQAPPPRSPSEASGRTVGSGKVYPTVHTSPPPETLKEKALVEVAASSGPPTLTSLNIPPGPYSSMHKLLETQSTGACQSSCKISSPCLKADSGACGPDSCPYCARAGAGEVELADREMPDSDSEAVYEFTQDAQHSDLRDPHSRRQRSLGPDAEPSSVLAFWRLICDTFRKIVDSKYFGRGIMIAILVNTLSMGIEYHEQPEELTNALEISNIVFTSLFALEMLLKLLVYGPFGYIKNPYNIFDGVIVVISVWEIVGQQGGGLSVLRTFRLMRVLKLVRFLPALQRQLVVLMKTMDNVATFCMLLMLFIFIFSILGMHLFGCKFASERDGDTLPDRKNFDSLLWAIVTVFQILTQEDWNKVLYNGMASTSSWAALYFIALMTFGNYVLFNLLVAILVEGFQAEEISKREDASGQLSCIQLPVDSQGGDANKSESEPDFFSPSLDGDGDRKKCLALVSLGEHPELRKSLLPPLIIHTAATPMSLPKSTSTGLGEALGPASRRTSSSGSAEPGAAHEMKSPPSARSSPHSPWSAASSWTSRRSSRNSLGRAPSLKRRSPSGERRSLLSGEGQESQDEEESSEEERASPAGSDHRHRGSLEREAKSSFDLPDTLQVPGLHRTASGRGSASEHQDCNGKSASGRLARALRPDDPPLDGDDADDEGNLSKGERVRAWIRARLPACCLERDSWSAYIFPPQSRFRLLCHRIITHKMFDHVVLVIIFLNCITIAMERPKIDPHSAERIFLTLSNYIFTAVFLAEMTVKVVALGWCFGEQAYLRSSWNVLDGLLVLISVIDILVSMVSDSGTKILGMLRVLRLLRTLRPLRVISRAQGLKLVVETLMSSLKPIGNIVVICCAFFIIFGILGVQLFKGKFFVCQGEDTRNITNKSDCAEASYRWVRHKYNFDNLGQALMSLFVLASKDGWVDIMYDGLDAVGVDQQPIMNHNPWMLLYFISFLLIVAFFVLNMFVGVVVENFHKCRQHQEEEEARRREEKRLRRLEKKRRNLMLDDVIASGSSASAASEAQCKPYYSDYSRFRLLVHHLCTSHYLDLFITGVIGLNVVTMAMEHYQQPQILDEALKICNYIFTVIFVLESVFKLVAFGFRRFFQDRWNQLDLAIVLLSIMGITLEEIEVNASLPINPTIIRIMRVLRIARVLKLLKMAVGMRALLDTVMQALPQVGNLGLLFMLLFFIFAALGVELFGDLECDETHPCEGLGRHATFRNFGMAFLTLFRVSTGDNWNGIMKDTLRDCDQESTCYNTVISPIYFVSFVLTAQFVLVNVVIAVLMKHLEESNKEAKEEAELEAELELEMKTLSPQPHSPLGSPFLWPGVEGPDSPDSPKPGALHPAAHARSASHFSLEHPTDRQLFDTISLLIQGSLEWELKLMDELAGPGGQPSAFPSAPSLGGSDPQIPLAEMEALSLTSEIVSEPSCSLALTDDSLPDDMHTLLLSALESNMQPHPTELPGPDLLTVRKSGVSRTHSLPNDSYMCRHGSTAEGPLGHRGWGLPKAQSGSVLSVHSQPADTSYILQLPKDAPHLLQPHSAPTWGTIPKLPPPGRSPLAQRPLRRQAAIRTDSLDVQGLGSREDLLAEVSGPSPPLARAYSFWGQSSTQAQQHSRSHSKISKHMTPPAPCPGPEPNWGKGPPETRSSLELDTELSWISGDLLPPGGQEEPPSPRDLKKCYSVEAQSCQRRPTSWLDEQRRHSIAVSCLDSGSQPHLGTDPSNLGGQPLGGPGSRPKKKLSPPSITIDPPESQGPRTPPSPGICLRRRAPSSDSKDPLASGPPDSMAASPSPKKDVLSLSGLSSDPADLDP
# measurement-notes: Human Cav3.1 calcium channel patch clamp assay (SyncroPatch 384PE; single point and IC50, voltage dependent block)
# Format: cell-based
# experimental-parameters: Testing Conc 1.25; HEK-293 natClytin/TASK1+Cav3.1 cell line, patch clamp
Below, each entry is listed alongside its reported % Inhibition (Single Point Data).
Number first, unit second: that is the form wanted.

Ask: Param readout = % Inhibition (Single Point Data); param system = Human Cav3.1 calcium channel (Homo sapiens, UniProt O43497); param query = `Cc1ccc(Cl)c2nc(CN3CC4CC(C3)N4CC(=O)NC(C)(C)C)[nH]c12` ; response: value
Reply: 100.76%

Ask: Param readout = % Inhibition (Single Point Data); param system = Human Cav3.1 calcium channel (Homo sapiens, UniProt O43497); param query = `CC(C)(C)NC(=O)CN1CC[C@H](CNc2nccc3ccc(Cl)cc23)CC1=O` ; response: value
Reply: 58.802%

Ask: Param readout = % Inhibition (Single Point Data); param system = Human Cav3.1 calcium channel (Homo sapiens, UniProt O43497); param query = `O=C(CN1C[C@@H]2C[C@H]1CN2CCC1CCC(F)(F)CC1)NC12CC3CC(CC(C3)C1)C2` ; response: value
Reply: 88.753%

Ask: Param readout = % Inhibition (Single Point Data); param system = Human Cav3.1 calcium channel (Homo sapiens, UniProt O43497); param query = CC(C)(C)NC(=O)CN1C2CCC1CN(Cc1nc3c(Cl)cc(F)cc3[nH]1)CC2 (centres unmarked) ; response: value
Reply: 82.104%

Ask: Param readout = % Inhibition (Single Point Data); param system = Human Cav3.1 calcium channel (Homo sapiens, UniProt O43497); param query = `O=S(=O)(CCN1C2CC1CN(Cc1nc3c(Cl)ccc(F)c3[nH]1)C2)c1ccccc1` ; response: value
Reply: 66.949%

Ask: Param readout = % Inhibition (Single Point Data); param system = Human Cav3.1 calcium channel (Homo sapiens, UniProt O43497); param query = `CC(C)(C)NC(=O)CN1C2CCC1CN(Cc1nc3cc(F)cc(Cl)c3o1)C2` ; response: value
Reply: 23.525%

Ask: Param readout = % Inhibition (Single Point Data); param system = Human Cav3.1 calcium channel (Homo sapiens, UniProt O43497); param query = `CC(C)(C)NC(=O)CN1C[C@@H]2C[C@H]1CN2C(=O)NC12CC3CC(CC(C3)C1)C2` ; response: value
Reply: 25.21%

Ask: Param readout = % Inhibition (Single Point Data); param system = Human Cav3.1 calcium channel (Homo sapiens, UniProt O43497); param query = `COc1cc(NC(=O)CN2C[C@@H]3C[C@H]2CN3CC(=O)NC2(C(F)(F)F)CC2)ccc1F` ; response: value
Reply: 83.804%

Ask: Param readout = % Inhibition (Single Point Data); param system = Human Cav3.1 calcium channel (Homo sapiens, UniProt O43497); param query = `CC(C)(NC(=O)CN1CC2CC(C1)N2Cc1nc2c(Cl)ccc(F)c2[nH]1)C(F)(F)F` ; response: value
Reply: 52.415%

Ask: Param readout = % Inhibition (Single Point Data); param system = Human Cav3.1 calcium channel (Homo sapiens, UniProt O43497); param query = CC(C(=O)Nc1ccc(F)c(OC(F)F)c1)N1C[C@@H]2C[C@H]1CN2CC(=O)NC(C)(C)C (some centres unmarked) ; response: value
Reply: 90.098%

More entries:
Ask: Param readout = % Inhibition (Single Point Data); param system = Human Cav3.1 calcium channel (Homo sapiens, UniProt O43497); param query = `COc1cc(Cl)cc(NC(=O)CN2CC3CC(C2)N3CC(=O)NC2(C(F)(F)F)CC2)c1` ; response: value
Reply: 79.86%

Each recorded value in this set is attributed to patent US20250213558A1.
